- EXPERIMENTAL DETAILS: chemical genetic growth profiling, strain panel (AID 1159580);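 note: tested at 20 µM; growth read once vehicle control cultures reached saturation at 30 °C; lower values mean less growth of the strain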
- MEASUREMENT CONDITIONS: S. cerevisiae deletion strains, growth OD, locus YJL166W, strain qcr8
Out of some 5,500 compounds screened, about 2,000 (36%) were called active. Another 18% or so got no clear call; they are omitted. Cut-off read from the data, not from the text of the source: active = normalized growth mostly below about 0.91 (no sharp cut-off); inconclusive = no clear call, values can overlap the other calls; inactive = mostly above about 0.92. Some of the results follow.
One label from this list, please: y (active), n (inactive)

Just curious, what result did C#C[C@]1(O)CCC2C3CCC4=CC(=O)CC[C@@H]4C3CC[C@@]21CC (some centres undefined) get here?
n

Just curious, what result did COC1=C[C@@H]2[C@@H]3Cc4ccc(OC)c(O)c4[C@]2(CCN3C)CC1=O get here?
n

Just curious, what result did Cc1cc(O)cc(O)c1C(=O)O get here?
n
